# Target entity: human GCG receptor (human, UniProt P47871 26-477)
# Sequence (P47871 26-477): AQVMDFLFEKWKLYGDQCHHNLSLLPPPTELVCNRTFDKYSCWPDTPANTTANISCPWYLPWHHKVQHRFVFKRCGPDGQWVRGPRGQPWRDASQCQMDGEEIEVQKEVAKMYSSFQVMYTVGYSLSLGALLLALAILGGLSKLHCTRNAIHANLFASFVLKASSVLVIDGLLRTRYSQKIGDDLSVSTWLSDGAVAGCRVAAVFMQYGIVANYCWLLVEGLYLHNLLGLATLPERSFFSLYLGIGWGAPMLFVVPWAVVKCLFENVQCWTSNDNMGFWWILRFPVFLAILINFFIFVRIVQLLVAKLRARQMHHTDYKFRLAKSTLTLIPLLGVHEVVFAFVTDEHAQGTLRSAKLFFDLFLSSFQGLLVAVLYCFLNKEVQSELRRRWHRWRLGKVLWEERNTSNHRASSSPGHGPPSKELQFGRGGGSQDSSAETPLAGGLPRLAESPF
# Assay method text: cell-based or functional assay
Bridge positions count the residues as written; N and C are the ends. Square brackets hold non-standard residues; d marks the D form. Ends that are not written are not given here. * marks the point of attachment. Acetyl(2-(4-imidazolyl)) = O=C(Cc1c[nH]cn1)*; Aib = CC(C)(N)C(=O)O
Assay metric: In vitro activity compared to native peptide (%) vs Glucagon
The answer is to be given in %; state only the numeric part.

Ask: Determine from records and report In vitro activity compared to native peptide (%) vs Glucagon for {Acetyl(2-(4-imidazolyl))}-[Aib]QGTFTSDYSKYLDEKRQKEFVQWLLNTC (bridge 15-19) [Triple agonist of SEQ ID NO: 81]
Reply: 0.3

Ask: Determine from records and report In vitro activity compared to native peptide (%) vs Glucagon for H[Aib]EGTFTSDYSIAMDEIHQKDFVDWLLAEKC (bridge 16-20) [Triple agonist of SEQ ID NO: 80]
Reply: 0

Ask: Determine from records and report In vitro activity compared to native peptide (%) vs Glucagon for H[Aib]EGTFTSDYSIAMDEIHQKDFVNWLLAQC (bridge 16-20) [Triple agonist of SEQ ID NO: 53]
Reply: 8.4

Ask: Determine from records and report In vitro activity compared to native peptide (%) vs Glucagon for Y[Aib]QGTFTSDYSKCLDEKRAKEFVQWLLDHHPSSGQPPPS (bridge 16-20) [Triple agonist of SEQ ID NO: 22]
Reply: 140

Ask: Determine from records and report In vitro activity compared to native peptide (%) vs Glucagon for H[Aib]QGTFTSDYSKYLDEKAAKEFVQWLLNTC (bridge 16-20) [Triple agonist of SEQ ID NO: 29]
Reply: 6

Ask: Determine from records and report In vitro activity compared to native peptide (%) vs Glucagon for Y[Aib]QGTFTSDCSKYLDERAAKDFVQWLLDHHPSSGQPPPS (bridge 16-20) [Triple agonist of SEQ ID NO: 72]
Reply: 1
